Source listed as the kinase profiling compilation of Christmann-Franck et al. (2016).

- Assayed target: MYLK (human)
- Method notes: KINOMEscan competition binding
- Cond: compound 10.0 µM
# class 1 = kinase still bound, per cent of control below 20% (exclusive); class 0 = kinase still bound, per cent of control at/above 20%

Q: Please check: kinase still bound, per cent of control for CS(=O)(=O)Nc1ccc(-c2ncc(/C=C3\SC(=N)NC3=O)s2)cc1 , strictly under 20% or not?
Ans: class 1

Q: For COc1cc(N2CCN(C)CC2)ccc1Nc1ncc2c(n1)N(C)c1ccccc1C(=O)N2C , is the recorded kinase still bound, per cent of control below the cut-off of 20%?
Ans: class 1

Q: Criterion: kinase still bound, per cent of control strictly below 20%. Is it met by N=C1NC(=O)/C(=C/c2ccc(-c3ccccc3O)o2)S1 ?
Ans: class 1

Q: Say whether its kinase still bound, per cent of control is strictly beneath 20%. Entry: N=C1NC(=O)/C(=C/c2ccc(-c3cnc4ccccc4c3)o2)S1
Ans: class 0

Q: Could you please tell me whether kinase still bound, per cent of control recorded for O=C1NC(=O)/C(=C/c2ccc(-c3ccc(C(=O)Nc4ccc(N5CCNCC5)cc4)cc3)o2)S1 is less than 20%?
Ans: class 0

Q: In the record for COc1cc(C(=O)NC2CCN(C)CC2)ccc1Nc1ncc2c(n1)N(C1CCCC1)[C@@H]1CCC[C@@H]1C(=O)N2C , is kinase still bound, per cent of control less than 20%?
Ans: class 1

Q: Here's an entry: Nc1cccc(-c2cc(/C=C3\SC(=O)NC3=O)c[nH]c2=O)c1 . Is its kinase still bound, per cent of control below 20%?
Ans: class 0

Q: For this compound, is kinase still bound, per cent of control lower than 20%? COc1cc(C(=O)NC2CCN(C)CC2)ccc1Nc1ncc2c(n1)N(C1CCCC1)CC(C)C(=O)N2C (stereo not drawn)
Ans: class 1

----------
- Assayed target: AAK1 (human)
- Method notes: KINOMEscan competition binding
- Cond: compound 10.0 µM
So I've got a bunch of compounds here, and I need their kinase still bound, per cent of control values.
Provide the reading as a plain figure in %.

// kinase still bound, per cent of control lookup, compound = NS(=O)(=O)c1ccc(-c2ccc(/C=C3\SC(=S)N(CC(=O)O)C3=O)o2)cc1 , result: 34

Short answer for NS(=O)(=O)c1ccc(-c2ccc(/C=C3\SC(=O)NC3=O)o2)cc1 : kinase still bound, per cent of control was 34

For reference, reported kinase still bound, per cent of control for COc1cc(N2CCN(C)CC2)ccc1Nc1ncc2c(n1)Nc1ccccc1NC2=O stands at 75

Sure, the documented kinase still bound, per cent of control for COc1cc(N2CCN(C)CC2)ccc1Nc1ncc2c(n1)N(C)c1sccc1C(=O)N2C is 75

For this compound ( N=C1NC(=O)/C(=C/c2c[nH]c(=O)c(-c3ccc4cc[nH]c4c3)c2)S1 ), measured kinase still bound, per cent of control is 20

kinase still bound, per cent of control reported for this compound CN1C(=O)c2ccccc2N(C)c2nc(Nc3ccc(N4CCC(O)CC4)cc3)ncc21 : 62

The reported value for O=C1NC(=O)/C(=C/c2c[nH]c(=O)c(-c3ccc(N4CCNCC4)nc3)c2)S1 in terms of kinase still bound, per cent of control is 2.4

Consider N=C1NC(=O)/C(=C/c2ccc(-c3cnc4ccccc4c3)o2)S1 . Its measured kinase still bound, per cent of control is 6.3

Notebook: CSC1=NC(=O)/C(=C/c2ccc(-c3ccc(S(N)(=O)=O)cc3)o2)S1 , kinase still bound, per cent of control read as 14

GET /value?item= CN1CCN(c2ccc(C(=O)Nc3ncc4c(n3)N(C)c3ccccc3C(=O)N4C)cc2)CC1 &field=kinase still bound, per cent of control returns 100

kinase still bound, per cent of control reported for this compound N=C1NC(=O)/C(=C/c2ccc(-c3ccc(F)cc3O)o2)S1 : 16

# compound N=C1NC(=O)/C(=C/c2c[nH]c(=O)c(-c3ccc(S(N)(=O)=O)cc3)c2)S1 ; its kinase still bound, per cent of control = 13

# kinase still bound, per cent of control of CS(=O)(=O)Nc1ccc(-c2ncc(/C=C3\SC(=N)NC3=O)s2)cc1 = 13

CS(=O)(=O)Nc1ccc(-c2cc(/C=C3\SC(=N)NC3=O)c[nH]c2=O)cc1 yielded kinase still bound, per cent of control of 7.6

// field: kinase still bound, per cent of control; key: Nc1cccc(-c2cc(/C=C3\SC(=O)NC3=O)c[nH]c2=O)c1 ; value = 1.8

// N=C1NC(=O)/C(=C/c2ccc(-c3ccc(C(N)=O)cc3O)o2)S1 : kinase still bound, per cent of control value = 15

Documented kinase still bound, per cent of control of O=C1NC(=O)/C(=C/c2c[nH]c(=O)c(-c3ccc(C(=O)Nc4ccc(N5CCNCC5)cc4)cc3)c2)S1 : 4.4

The recorded kinase still bound, per cent of control for entry CN1C(=O)[C@H]2CCC[C@H]2N(C2CCCC2)c2nc(Nc3ccc4ncccc4c3)ncc21 equals 12

Record O=C1NC(=S)S/C1=C\c1ccc(-c2cncc3ccccc23)o1 , field kinase still bound, per cent of control: 4.7

----------
- Assayed target: UniProtKB O00444
- Sequence (O00444 whole entry, looked up): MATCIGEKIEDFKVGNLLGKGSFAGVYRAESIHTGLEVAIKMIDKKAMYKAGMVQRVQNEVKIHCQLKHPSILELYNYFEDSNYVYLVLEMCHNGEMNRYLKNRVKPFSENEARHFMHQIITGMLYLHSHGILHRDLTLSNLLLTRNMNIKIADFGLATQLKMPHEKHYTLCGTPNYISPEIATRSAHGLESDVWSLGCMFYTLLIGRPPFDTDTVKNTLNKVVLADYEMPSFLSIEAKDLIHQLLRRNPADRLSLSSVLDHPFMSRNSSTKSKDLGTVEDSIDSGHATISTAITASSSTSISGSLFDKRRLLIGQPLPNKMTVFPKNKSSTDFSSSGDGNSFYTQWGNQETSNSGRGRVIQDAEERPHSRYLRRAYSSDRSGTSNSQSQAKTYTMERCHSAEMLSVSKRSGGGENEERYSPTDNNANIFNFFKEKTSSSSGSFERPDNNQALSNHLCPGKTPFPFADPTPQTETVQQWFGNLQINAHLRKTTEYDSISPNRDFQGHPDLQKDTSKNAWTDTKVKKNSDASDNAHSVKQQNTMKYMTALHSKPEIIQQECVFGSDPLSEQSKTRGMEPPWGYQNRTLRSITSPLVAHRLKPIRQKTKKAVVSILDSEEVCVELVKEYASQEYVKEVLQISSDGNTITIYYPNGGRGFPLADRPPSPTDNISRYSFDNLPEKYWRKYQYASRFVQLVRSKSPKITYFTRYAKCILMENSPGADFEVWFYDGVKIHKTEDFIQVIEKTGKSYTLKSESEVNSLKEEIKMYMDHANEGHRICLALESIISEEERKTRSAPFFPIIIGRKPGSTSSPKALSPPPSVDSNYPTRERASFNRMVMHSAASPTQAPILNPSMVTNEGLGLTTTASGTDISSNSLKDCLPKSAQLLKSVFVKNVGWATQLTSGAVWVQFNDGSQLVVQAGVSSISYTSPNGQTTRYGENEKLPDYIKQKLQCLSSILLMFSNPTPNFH
- Method notes: KINOMEscan competition binding
- Cond: compound 10.0 µM
Measured attribute: kinase still bound, per cent of control (%)
State just the number; it will be interpreted in %.

For N=C1NC(=O)/C(=C/c2ccc(-c3ccc(F)cc3O)o2)S1 the compound record lists kinase still bound, per cent of control as 4.6

Measured kinase still bound, per cent of control of CS(=O)C1=NC(=O)/C(=C/c2ccc(-c3ccc(S(N)(=O)=O)cc3)o2)S1 (centres undefined) : 4.7

In plain terms, COc1cc(N2CCC(N3CCN(C)CC3)CC2)ccc1Nc1ncc2c(n1)N(C1CCCC1)C(C)CC(=O)N2C (centres undefined) has a documented kinase still bound, per cent of control of 26

Just so you know, measured kinase still bound, per cent of control for COc1cc(N2CCN(C)CC2)ccc1Nc1ncc2c(n1)N(C)c1sccc1C(=O)N2C came out at 9.9

----------
- Assayed target: IRAK3 (human)
- Method notes: KINOMEscan competition binding
- Cond: compound 10.0 µM
Measured attribute: kinase still bound, per cent of control (%)
Express it in %; write the number only.

CN1C(=O)c2ccccc2N(C)c2nc(Nc3ccc(N4CCC(O)CC4)cc3)ncc21 has a reported kinase still bound, per cent of control of 82

// kinase still bound, per cent of control lookup, compound = COc1cc(N2CCN(C)CC2)ccc1Nc1ncc2c(n1)N(C)c1ccccc1N(C)C2=O , result: 82

Note to self: kinase still bound, per cent of control recorded for COc1cc(N2CCN(C)CC2)ccc1Nc1ncc2c(n1)Nc1ccccc1NC2=O was 79

----------
- Assayed target: PKN2 (human)
- Method notes: KINOMEscan competition binding
- Cond: compound 10.0 µM
Measured attribute: kinase still bound, per cent of control (%)
Provide the reading as a plain figure in %.

The molecule listed as COc1cc(N2CCN(C)CC2)ccc1Nc1ncc2c(n1)N(C)c1sccc1C(=O)N2C shows kinase still bound, per cent of control equal to 90

The molecule listed as COc1cc(N2CCN(C)CC2)ccc1Nc1ncc2c(n1)N(C)c1ccccc1N(C)C2=O has a reported kinase still bound, per cent of control of 100

The molecule listed as N=C1NC(=O)/C(=C/c2ccc(-c3ccc(C(N)=O)cc3O)o2)S1 shows kinase still bound, per cent of control equal to 31

The molecule listed as CN1C(=O)c2ccccc2N(C)c2nc(NS(=O)(=O)c3ccc(N)cc3)ncc21 has a reported kinase still bound, per cent of control of 70

----------
Hi there, I'd appreciate the recorded kinase still bound, per cent of control for every entry that follows.
- Assayed target: UniProt:P28482
- Sequence (P28482 whole entry, looked up): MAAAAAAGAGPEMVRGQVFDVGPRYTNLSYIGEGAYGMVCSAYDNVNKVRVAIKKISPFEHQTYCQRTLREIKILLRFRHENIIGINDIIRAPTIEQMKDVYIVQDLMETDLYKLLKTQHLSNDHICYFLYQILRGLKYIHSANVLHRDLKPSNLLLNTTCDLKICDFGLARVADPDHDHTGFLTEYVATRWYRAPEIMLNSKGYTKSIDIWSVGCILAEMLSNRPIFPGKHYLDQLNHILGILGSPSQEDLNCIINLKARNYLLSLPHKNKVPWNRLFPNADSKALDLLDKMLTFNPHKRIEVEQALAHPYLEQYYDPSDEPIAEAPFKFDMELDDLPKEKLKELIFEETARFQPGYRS
- Method notes: KINOMEscan competition binding
- Cond: compound 10.0 µM

Quick note, kinase still bound, per cent of control for COc1cc(N2CCN(C)CC2)ccc1Nc1ncc2c(n1)N(C)c1ccccc1N(C)C2=O landed at 100%

Record CN1C(=O)c2ccccc2N(C)c2nc(NS(=O)(=O)c3ccc(N)cc3)ncc21 . Reported kinase still bound, per cent of control: 100%

The value of kinase still bound, per cent of control measured for the compound COc1cc(N2CCN(C)CC2)ccc1Nc1ncc2c(n1)N(C)c1sccc1C(=O)N2C turned out to be 83%

Summary for this compound, COc1cc(N2CCN(C)CC2)ccc1Nc1ncc2c(n1)Nc1ccccc1NC2=O : kinase still bound, per cent of control is 94%

kinase still bound, per cent of control measured on CN1C(=O)c2ccccc2N(C)c2nc(Nc3ccc(N4CCC(O)CC4)cc3)ncc21 = 100%

Measured kinase still bound, per cent of control of O=C1NC(=O)/C(=C/c2c[nH]c(=O)c(-c3ccc(N4CCNCC4)nc3)c2)S1 : 97%

----------
- Assayed target: CAMKK2 (human) (UniProt Q96RR4)
- Sequence (Q96RR4 whole entry, looked up): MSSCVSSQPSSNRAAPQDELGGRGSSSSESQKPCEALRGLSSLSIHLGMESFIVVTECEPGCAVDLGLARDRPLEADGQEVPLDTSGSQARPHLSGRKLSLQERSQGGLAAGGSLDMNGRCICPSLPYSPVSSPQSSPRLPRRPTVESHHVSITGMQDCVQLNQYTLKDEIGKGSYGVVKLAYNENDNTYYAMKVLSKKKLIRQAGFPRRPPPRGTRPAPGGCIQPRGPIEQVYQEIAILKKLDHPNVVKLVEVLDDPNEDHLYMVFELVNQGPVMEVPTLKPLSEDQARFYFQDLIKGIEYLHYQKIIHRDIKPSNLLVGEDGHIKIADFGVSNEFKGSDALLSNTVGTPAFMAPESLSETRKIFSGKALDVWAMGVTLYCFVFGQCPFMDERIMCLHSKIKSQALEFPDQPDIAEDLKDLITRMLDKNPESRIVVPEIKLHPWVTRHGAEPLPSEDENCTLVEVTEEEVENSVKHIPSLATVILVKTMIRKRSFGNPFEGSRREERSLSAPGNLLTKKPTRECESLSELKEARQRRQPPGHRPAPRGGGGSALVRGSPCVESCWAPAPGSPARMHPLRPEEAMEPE
- Method notes: KINOMEscan competition binding
- Cond: compound 10.0 µM
hey, just use 1 if measured kinase still bound, per cent of control is less than 30%, otherwise 0

Q: kinase still bound, per cent of control strictly < 30% for this molecule? COc1cc(N2CCC(O)CC2)ccc1Nc1ncc2c(n1)N1CCc3cccc(c31)C(=O)N2C
Ans: 0

Q: Does CS(=O)(=O)Nc1ccc(-c2ccc(C=C3C(=O)NC(=O)NC3=O)o2)cc1 have kinase still bound, per cent of control strictly under 30%?
Ans: 0

Q: Problem: For the molecule O=C1NC(=O)/C(=C/c2c[nH]c(=O)c(-c3ccc(N4CCNCC4)nc3)c2)S1 , is kinase still bound, per cent of control under 30%?
Ans: 0

Q: kinase still bound, per cent of control under 30%? Item: COc1cc(C(=O)NC2CCC(O)CC2)ccc1Nc1ncc2c(n1)N(C1CCCC1)[C@@H]1CCC[C@@H]1C(=O)N2C (stereo partly specified)
Ans: 1

Q: Does CN1C(=O)c2ccccc2N(C)c2nc(NS(=O)(=O)c3ccc(N)cc3)ncc21 have kinase still bound, per cent of control strictly under 30%?
Ans: 0

Q: For COc1cc(N2CCN(C)CC2)ccc1Nc1ncc2c(n1)N(C)c1ccccc1N(C)C2=O , is the recorded kinase still bound, per cent of control below the cut-off of 30%?
Ans: 0

Q: Answer whether the molecule CSC1=NC(=O)/C(=C/c2c[nH]c(=O)c(-c3ccc(NS(C)(=O)=O)cc3)c2)S1 has kinase still bound, per cent of control strictly less than 30%
Ans: 0

Q: Is the reported kinase still bound, per cent of control for CS(=O)(=O)Nc1ccc(-c2ncc(/C=C3\SC(=N)NC3=O)s2)cc1 strictly below 30%?
Ans: 1

Q: Identify whether the molecule N=C1NC(=O)/C(=C/c2ccc(-c3ccc(F)cc3O)o2)S1 records kinase still bound, per cent of control below 30%.
Ans: 1

Q: Strictly below 30% in kinase still bound, per cent of control? O=C1NC(=S)S/C1=C\c1ccc(-c2cncc3ccccc23)o1
Ans: 1

Q: Lab log: compare recorded kinase still bound, per cent of control with 30%; is it strictly lower for COc1cc(C(=O)NC2CCN(C)CC2)ccc1Nc1ncc2c(n1)N(C1CCCC1)[C@@H]1CCC[C@@H]1C(=O)N2C ?
Ans: 1

Q: Confirm or reject: kinase still bound, per cent of control of COc1cc(N2CCN(C)CC2)ccc1Nc1ncc2c(n1)Nc1ccccc1NC2=O lies strictly below 30%
Ans: 0

Q: Dear colleague, could you confirm whether kinase still bound, per cent of control of Nc1cccc(-c2cc(/C=C3\SC(=O)NC3=O)c[nH]c2=O)c1 falls below 30%? Thanks.
Ans: 1

Q: Is 30% strictly greater than the molecule's reported kinase still bound, per cent of control? molecule: COc1cc(N2CCC(C)(O)CC2)ccc1Nc1ncc2c(n1)N(C1CCCC1)CCC(=O)N2C
Ans: 1

Q: Say whether its kinase still bound, per cent of control is strictly beneath 30%. Entry: COc1cc(C(=O)NC2CCN(C)CC2)ccc1Nc1ncc2c(n1)N(C1CCCC1)CC(C)C(=O)N2C (stereo unspecified)
Ans: 1

Q: Does the reported kinase still bound, per cent of control of the following molecule sit strictly below 30%? CN1C(=O)c2ccccc2N(C)c2nc(Nc3ccc(N4CCC(O)CC4)cc3)ncc21
Ans: 0

Q: For this molecule, is kinase still bound, per cent of control lower than 30%? N=C1NC(=O)/C(=C/c2ccc(-c3cncc4ccccc34)o2)S1
Ans: 1

Q: Determine whether this molecule shows kinase still bound, per cent of control lower than 30% (ties excluded): COc1cc(N2CCN(C)CC2)ccc1Nc1ncc2c(n1)N(C1CCCC1)C(C)CC(=O)N2 (stereo unspecified)
Ans: 0

Q: Please state whether kinase still bound, per cent of control is below 30% for COc1cc(N2CCN(C)CC2)ccc1Nc1ncc2c(n1)N(C1CCCC1)C(C)CC(=O)N2C (stereo unspecified)
Ans: 1

Q: Answer whether the molecule CN1C(=O)c2ccccc2N(C)c2nc(Nc3ccc(N4CCC(O)CC4)cn3)ncc21 has kinase still bound, per cent of control strictly less than 30%
Ans: 0

Q: For CN1CCN(c2ccc(C(=O)Nc3ncc4c(n3)N(C)c3ccccc3C(=O)N4C)cc2)CC1 , is the recorded kinase still bound, per cent of control below the cut-off of 30%?
Ans: 0

Q: Lab note: kinase still bound, per cent of control threshold 30%. Does this molecule come in strictly under it? N=C1NC(=O)/C(=C/c2c[nH]c(=O)c(-c3ccc4cc[nH]c4c3)c2)S1
Ans: 1

Q: Lab note: kinase still bound, per cent of control threshold 30%. Does this molecule come in strictly under it? COc1cc(N2CCC(O)CC2)ccc1Nc1ncc2c(n1)N(C)c1ccccc1C(=O)N2C
Ans: 1

Q: kinase still bound, per cent of control under 30%? Item: COc1cc(C(=O)NC2CCN(C)CC2)ccc1Nc1ncc2c(n1)N(C1CCCC1)C(C)CC(=O)N2C (stereo unspecified)
Ans: 1

Q: Does the reported kinase still bound, per cent of control of COc1cc(N2CCC(N3CCN(C)CC3)CC2)ccc1Nc1ncc2c(n1)N(C1CCCC1)C(C)CC(=O)N2C (stereo unspecified) stay below 30%?
Ans: 0

Q: State whether 30% exceeds kinase still bound, per cent of control recorded for N=C1NC(=O)/C(=C/c2ccc(-c3ccccc3O)o2)S1 .
Ans: 1
